- System: SR leukemia
- METHOD SUMMARY: NCI-60 one-dose screen, 48 h (100 = growth as untreated, 0 = no growth, -100 = all killed)
- CONDITION: 10 µM
This is part of a sample that, as a whole, favours compounds with a hit. Of some 83,000 tested, about 20% had one in any assay.
Answer 0 if growth is under 40%, and 1 if it is 40% or more.

O=C(COc1cccc(/C=C2\CSc3ccc(Cl)cc3C2=O)c1)c1ccc(Cl)cc1: 0

Can `O=C1/C(=C/c2ccc3c(c2)OCO3)SC(=S)N1C1c2ccccc2Oc2ccccc21` be said to have growth at or above 40%?
1

Can `CCOC(=O)c1cc(C(=O)c2cc(OC)c(OC)c(OC)c2)n2nc(C)ccc12` be said to have growth at or above 40%?
0

Can `Cc1c2cnccc2c(C)c2c1oc1ccccc12` be said to have growth at or above 40%?
0

Can CC1=CC2C(C(O)CC3(C)C2CC(C)C32OCOC23COCO3)C2(C)C/C(=C/O)C(=O)C=C12 (stereo not drawn) be said to have growth at or above 40%?
0

Can `COc1ccc2c(c1)C(=O)/C(=C/c1ccc([N+](=O)[O-])o1)O2` be said to have growth at or above 40%?
0

Can `Cc1cc(NC(=O)c2ccc(C)c(Nc3nccc(-c4cccnc4)n3)c2)cc(-n2cnc(C)c2)c1` be said to have growth at or above 40%?
0

Can `O=C(CCCNC(=O)c1nc(-c2ccccc2)n(-c2ccccc2)n1)NO` be said to have growth at or above 40%?
1

Can `Oc1ccc(-c2[nH]c3ccccc3c2-c2nc3ccccc3o2)cc1` be said to have growth at or above 40%?
0

Can `CCOC(=O)CSc1nc(-c2cc(OC)ccc2OC)cc(-c2ccc(OC)cc2)c1C#N` be said to have growth at or above 40%?
1

Can `Nc1c(Br)cc(Br)c2c1[nH]c(=O)c1ccccc12` be said to have growth at or above 40%?
1

Can `CC(C)(C)c1ccc(S(=O)(=O)N[C@H]2CC[C@H]3[C@@H]4CCc5cc(O)c([N+](=O)[O-])cc5[C@H]4CC[C@]23C)cc1` be said to have growth at or above 40%?
1

Can `Cc1cc(SCc2ccccc2)nc(N)n1` be said to have growth at or above 40%?
1

* * *

- System: MOLT-4 leukemia
- METHOD SUMMARY: NCI-60 one-dose screen, 48 h (100 = growth as untreated, 0 = no growth, -100 = all killed)
- CONDITION: 10 µM
This is part of a sample that, as a whole, favours compounds with a hit. Of some 83,000 tested, about 20% had one in any assay.
growth values for the compounds below.
Supply the numeric figure in %, leaving out any unit text.

A selection of reference data follows.
Nc1nc(-c2ccc(Cl)cc2)cc(-c2cc3ccccc3oc2=O)n1: 93.8
CCN(CC)c1ccc(/C=C2\SC(=O)C(Nc3nnc(-c4cccnc4SCc4ccccc4)o3)C2=O)cc1 (stereo not given): 61.9
O=C(CCc1nnc2sc(-c3cc(O)c(O)c(O)c3)nn12)c1nc2ccccc2[nH]1: 92.3

// switching to the query compound
What growth value was documented for this compound, `COc1ccc(C(=O)c2ccccc2CN2C(=O)c3ccccc3C2=O)cc1` ?
87
